Target: RNA-directed RNA polymerase (Hepacivirus hominis, UniProt O39930)
Sequence (O39930 whole entry): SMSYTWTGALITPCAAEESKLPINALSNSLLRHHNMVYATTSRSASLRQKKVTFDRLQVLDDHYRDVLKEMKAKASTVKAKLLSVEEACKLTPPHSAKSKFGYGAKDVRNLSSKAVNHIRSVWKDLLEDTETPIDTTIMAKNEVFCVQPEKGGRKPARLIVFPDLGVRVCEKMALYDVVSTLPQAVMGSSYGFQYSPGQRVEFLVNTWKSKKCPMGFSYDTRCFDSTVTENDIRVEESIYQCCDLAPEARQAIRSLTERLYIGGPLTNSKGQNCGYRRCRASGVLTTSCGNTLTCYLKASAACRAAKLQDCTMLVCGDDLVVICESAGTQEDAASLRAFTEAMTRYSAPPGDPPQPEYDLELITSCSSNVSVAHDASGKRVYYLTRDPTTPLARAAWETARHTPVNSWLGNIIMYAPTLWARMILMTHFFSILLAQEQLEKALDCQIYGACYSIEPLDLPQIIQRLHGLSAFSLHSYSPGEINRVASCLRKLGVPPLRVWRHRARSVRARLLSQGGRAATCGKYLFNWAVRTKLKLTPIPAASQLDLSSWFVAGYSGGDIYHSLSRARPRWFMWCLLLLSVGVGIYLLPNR
Assay: Inhibition of HCV 1b NS5B RNA polymerase
Parameters: species or system Hepatitis C virus subtype 1b
pIC50: −log10 of the molar value.
PROPERTY_NAME: pIC50

Worked set:
Cc1cccc2c1N=C(c1c(O)c3cccnc3n(Cc3ccccc3)c1=O)NS2(=O)=O = 7.02
CNC(=O)COc1ccc2c(c1)S(=O)(=O)NC(c1c(O)c3cccnc3n(CCC(C)C)c1=O)=N2 = 7.10

(a) CC(C)CCn1c(=O)c(C2=Nc3ccc(OCC(=O)OC(C)(C)C)cc3S(=O)(=O)N2)c(O)c2cccnc21
(b) CC(C)CCn1c(=O)c(C2=Nc3ccc(NCC#N)cc3S(=O)(=O)N2)c(O)c2cccnc21
Could you please tell me which of these two has the higher pIC50: a or b ? # respond with the chosen item's label
b

(P) COc1cccc2c1NC(c1c(O)c3cccnc3n(Cc3ccccc3)c1=O)=NS2(=O)=O
(Q) O=c1c(C2=NS(=O)(=O)c3cccc(O)c3N2)c(O)c2cccnc2n1Cc1ccccc1
(R) CC(C)CCn1c(=O)c(C2=NS(=O)(=O)c3cc(OCC#N)ccc3N2)c(O)c2cccnc21
(S) Cc1ccc2c(c1)S(=O)(=O)NC(c1c(O)c3cccnc3n(Cc3ccccc3)c1=O)=N2
Please list these molecules in decreasing order of pIC50. Write the labels out in the order the request specifies.
R, Q, S, P

###

Biological target: RNA-directed RNA polymerase (Hepacivirus hominis, UniProt O39930)
Assay: Inhibition of HCV 1a NS5B RNA polymerase
Parameters: species or system Hepatitis C virus subtype 1a
pIC50: −log10 of the molar value.
PROPERTY_NAME: pIC50

Please review the entries below; each comes with its answer.
Cc1ccc2c(c1)S(=O)(=O)NC(c1c(O)c3cccnc3n(Cc3ccccc3)c1=O)=N2 = 4.59
O=c1c(C2=NS(=O)(=O)c3ccccc3N2)c(O)c2cccnc2n1Cc1ccccc1 = 5.24
CC(C)CCn1c(=O)c(C2=Nc3ccc(NCC#N)cc3S(=O)(=O)N2)c(O)c2cccnc21 = 6.92
O=c1c(C2=NS(=O)(=O)c3cccc(Br)c3N2)c(O)c2cccnc2n1Cc1ccccc1 = 5.21

(1) CC(C)CCn1c(=O)c(C2=NS(=O)(=O)c3cc(OCC#N)ccc3N2)c(O)c2cccnc21
(2) COc1cccc2c1NC(c1c(O)c3cccnc3n(Cc3ccccc3)c1=O)=NS2(=O)=O
Lab note: check whether 1 or 2 has the lower measured pIC50. # reply format: chosen label
2
(2: 4.74, 1: 6.85)

(I) CC(C)CCn1c(=O)c(C2=NS(=O)(=O)c3ccccc3N2)c(O)c2cccnc21
(II) O=c1c(C2=Nc3ccc(Br)cc3S(=O)(=O)N2)c(O)c2cccnc2n1Cc1ccccc1
(III) CCCCS(=O)(=O)Nc1ccc2c(c1)S(=O)(=O)NC(c1c(O)c3cccnc3n(CCC(C)C)c1=O)=N2
Order the records, beginning with the lowest pIC50 and ending with the highest. Return the labels ranked in the requested order, please.
II, I, III

(I) CC(C)CCn1c(=O)c(C2=NS(=O)(=O)c3cc(OCC(=O)N(C)C)ccc3N2)c(O)c2cccnc21
(II) CC(C)CCn1c(=O)c(C2=Nc3ccc(OCC(=O)OC(C)(C)C)cc3S(=O)(=O)N2)c(O)c2cccnc21
Among I and II , which shows a numerically higher pIC50 result? Mark your selection by writing its label.
I

(1) COc1cccc2c1N=C(c1c(O)c3cccnc3n(CCC(C)C)c1=O)NS2(=O)=O
(2) CC(C)CCn1c(=O)c(C2=Nc3ccc(N)cc3S(=O)(=O)N2)c(O)c2cccnc21
(3) O=c1c(C2=NS(=O)(=O)c3cccc(O)c3N2)c(O)c2cccnc2n1Cc1ccccc1
(4) CC(C)CCn1c(=O)c(C2=Nc3ccc(OCC(N)=O)cc3S(=O)(=O)N2)c(O)c2cccnc21
(5) CNC(=O)COc1ccc2c(c1)S(=O)(=O)NC(c1c(O)c3cccnc3n(CCC(C)C)c1=O)=N2
Order the records so the highest pIC50 appears first and the lowest last. As an answer, provide the labels arranged in the order called for.
4, 5, 2, 3, 1
(4: 7.34, 5: 6.74, 2: 6.51, 3: 5.08, 1: 4.75)

(1) Cc1cccc2c1N=C(c1c(O)c3cccnc3n(Cc3ccccc3)c1=O)NS2(=O)=O
(2) CC(C)CCn1c(=O)c(C2=Nc3ccc(NCC(N)=O)cc3S(=O)(=O)N2)c(O)c2cccnc21
Endpoint returns whichever of 1 and 2 has the numerically higher pIC50. Indicate your choice by writing its label.
2
